# Test system: Nucleic Acid
# experiment: Evaluated for thermal denaturation at pH 6.3 against poly(A)-poly(dt) synthetic DNA oligonucleotide
# Type: nucleic-acid assay
readout.kind: ΔTm
// return a plain number; no unit text

Entry c1ccc(CN2CCN(CCCN3CCN(Cc4ccccc4)CC3)CC2)cc1 — recorded ΔTm = 0

Entry C1CCN(C2CCN(CCN3CCN(CCN4CCC(N5CCCCC5)CC4)CC3)CC2)CC1 — recorded ΔTm = 6.5

Entry C(CN1CCC(C2=NCCN2)CC1)CN1CCC(C2=NCCN2)CC1 — recorded ΔTm = 6.1

Entry OC1CCN(Cc2ccc(CN3CCC(O)CC3)cc2)CC1 — recorded ΔTm = 0

Entry c1cnc(N2CCN(Cc3cccc(CN4CCN(c5ncccn5)CC4)c3)CC2)nc1 — recorded ΔTm = 0

Entry N#CC1CCN(CCCN2CCC(C#N)CC2)CC1 — recorded ΔTm = 0

Entry OCC1CCCN(CCCN2CCCC(CO)C2)C1 (configuration not stated) — recorded ΔTm = 0

###

# Tested on: Nucleic Acid
# experiment: Evaluated for thermal denaturation at pH 6.3 against poly(A)-poly(dt) synthetic DNA oligonucleotide
# Assay type: nucleic-acid assay
Doc: threshold 2 (exclusive). Items with ΔTm beneath it return 1; others return -1.

[in] Does the reported ΔTm of OCC1CCN(CCCN2CCC(CO)CC2)CC1 stay below 2?
[out] 1

[in] Does the reported ΔTm of c1cc(CN2CCN(Cc3ccc(CN4CCNCC4)cc3)CC2)ccc1CN1CCNCC1 stay below 2?
[out] -1

[in] Does the reported ΔTm of c1cnc(N2CCN(Cc3ccc(CN4CCN(c5ncccn5)CC4)cc3)CC2)nc1 stay below 2?
[out] 1

[in] Does the reported ΔTm of c1cc(CN2CCC(N3CCCCC3)CC2)cc(CN2CCC(N3CCCCC3)CC2)c1 stay below 2?
[out] -1

[in] Does the reported ΔTm of C1CCN(C2CCN(CCCN3CCC(N4CCCCC4)CC3)CC2)CC1 stay below 2?
[out] -1

[in] Does the reported ΔTm of C1CCN(CCCN2CCCCC2)CC1 stay below 2?
[out] 1

[in] Does the reported ΔTm of c1cc(CN2CCNCC2)ccc1CN1CCNCC1 stay below 2?
[out] 1

[in] Does the reported ΔTm of c1cc(CN2CCC(N3CCCCC3)CC2)ccc1CN1CCC(N2CCCCC2)CC1 stay below 2?
[out] -1

[in] Does the reported ΔTm of C(CC1CCNCC1)CC1CCNCC1 stay below 2?
[out] 1

[in] Does the reported ΔTm of c1cc(CN2CCC(C3=NCCN3)CC2)ccc1CN1CCC(C2=NCCN2)CC1 stay below 2?
[out] -1

[in] Does the reported ΔTm of CN1CCN(CCCN2CCN(C)CC2)CC1 stay below 2?
[out] 1

[in] Does the reported ΔTm of C1CCN(CCN2CCN(CCN3CCCCC3)CC2)CC1 stay below 2?
[out] 1

###

# System: Nucleic Acid
# experiment: Evaluated for thermal denaturation at pH 4.9 against poly(A)-poly(dt synthetic DNA oligonucleotide
# Assay type: nucleic-acid assay
readout.kind: ΔTm
// return a plain number; no unit text

Entry c1cc(CN2CCC(C3=NCCN3)CC2)ccc1CN1CCC(C2=NCCN2)CC1 — recorded ΔTm = 9.5

Entry OCC1CCN(CCCN2CCC(CO)CC2)CC1 — recorded ΔTm = 0.5

Entry C1CCN(C2CCN(CCN3CCN(CCN4CCC(N5CCCCC5)CC4)CC3)CC2)CC1 — recorded ΔTm = 8.3

Entry C1CCN(CCCN2CCCCC2)CC1 — recorded ΔTm = 0

Entry C(CC1CCNCC1)CC1CCNCC1 — recorded ΔTm = 0.7

Entry c1cc(CN2CCN(Cc3ccc(CN4CCNCC4)cc3)CC2)ccc1CN1CCNCC1 — recorded ΔTm = 5.1

Entry C1CCN(CCN2CCN(CCN3CCCCC3)CC2)CC1 — recorded ΔTm = 0.2

Entry C1CCN(C2CCN(CCCN3CCC(N4CCCCC4)CC3)CC2)CC1 — recorded ΔTm = 4.5
